Give SPOT peptide array binding signal intensity for every item shown.
target: CaLsb1; assay: SPOT peptide array binding signal intensity (averaged, normalized) (arbitrary units (background-subtracted, floor 0; scale differs between SH3 domains)); higher = stronger binding of the SH3 domain to the peptide
One number for each entry.

Before answering, review these 3 worked examples.
VPPPMQPPPIESSNL
0.5
LYEAMPPTLPHRDWK
0.5
DKKTKPTPPPKPSHL
0.5

Now for another entry.
IN: Endpoint output: SPOT peptide array binding signal intensity of "NSVPIMPTLPPRPYI" . Value?
OUT: 3.25
